# Tested on: MOLT-4 leukemia
# run.description: NCI tumour cell line growth inhibition, 48 h
Quick reference for TGI among some compounds

Recorded TGI, per entry:
>>> measurement("CC(=O)C1=C(N=[N+]=[N-])c2cccc3cccc(c23)C1=O")
"33.2 µM"
>>> measurement("CCCNCc1nc2ccc(Br)cc2c(=O)n1CCC")
"> 100 µM"
>>> measurement("Cc1ccc(C)c(NC(=O)c2cc(-c3ccc([N+](=O)[O-])cc3)nc(N)n2)c1")
"> 100 µM"
>>> measurement("C1COC(NC(C2CC2)C2CC2)=N1")
"> 100 µM"
>>> measurement("O=C1C=C(Nc2ccccc2C(=O)CC(=O)C(=O)Nc2cccc(C(F)(F)F)c2)c2ccccc2C1=O")
"> 57.9 µM"
>>> measurement("OCCN(CCO)c1ccc2c(C(F)(F)F)cc(C(F)(F)F)nc2n1")
"> 100 µM"
>>> measurement("COc1ccc(C(c2ccc(C(C)C)cc(=O)c2O)c2c(O)cc3oc(-c4ccccc4)cc(=O)c3c2O)cc1 (stereo not given)")
"48.4 µM"
>>> measurement("O=C(Nc1cc(C(F)(F)F)ccc1F)Nc1n[nH]c2ccccc12")
"> 100 µM"

# input What value of TGI has been recorded for this entry: O=C(O)/C(=C/c1ccccc1[N+](=O)[O-])c1ccccc1
# output > 100 µM

# input What value of TGI has been recorded for this entry: COc1ccc2c3c1OC1C(=O)C=CC4(O)C(C2)NCC[C@@]314 (stereo not given in full)
# output 9.13 µM

* * *

Quick reference for TGI among some compounds
# Tested on: SR leukemia
# run.description: NCI tumour cell line growth inhibition, 48 h
Only the number, expressed in µM, is required.

>>> measurement("O=C(/C=C/c1ccc(O)c(O)c1)OCCc1cccc2ccccc12")
5.64
>>> measurement("CCCNC(=S)N/N=C/c1cccc(C)n1")
48.3
>>> measurement("CC(=O)O[C@H]1CC[C@]2(C)[C@H]3CC[C@@H]4[C@H]5[C@H](C(C)C)CC[C@]5(C(=O)OCC(CO)(CO)N=C(N)N)CC[C@@]4(C)[C@]3(C)CC[C@H]2C1(C)C")
4.61

From here, focus on the item given below.
# input Please tell me: TGI of O=C(O)C1C2CC3C(OC(=O)C31)C2Br (stereo not given) , system SR leukemia?
# output 26.2

* * *

Quick reference for TGI among some molecules
# Test system: KM12 colon
# run.description: NCI tumour cell line growth inhibition, 48 h

>>> measurement("CC(=O)N1CC2Nc3ccccc3C2CC1CO (stereo unspecified)")
"> 100 µM"
>>> measurement("N#Cc1ccccc1C#C/C=C\\C#Cc1ccc(OCCCNC(=O)c2cc3ccccc3[nH]2)cc1")
"44.2 µM"
>>> measurement("CCOc1ccc2c(c1)/C(=C(\\C(Cl)=C(Cl)Cl)[N+](=O)[O-])N2")
"> 100 µM"
>>> measurement("O=c1c2ccc3cccc4c(=O)cc(c5ccccc15)-c2c34")
"> 100 µM"
>>> measurement("CC1(O)CC2C(CC1SCCO)C2(C)C (stereo unspecified)")
"> 100 µM"
>>> measurement("Cc1cc2[nH]c3c(C#N)c(-c4ccccc4)c(N=Nc4cccc(C(F)(F)F)c4)c(=O)n3c2cc1C")
"> 100 µM"

# input What value of TGI has been recorded for this entry: O=C(CCC(=O)Nc1ccc(Cl)cc1)CC(=O)c1ccc(F)cc1
# output > 100 µM

* * *

Quick reference for TGI among some compounds
# System: MDA-N
# run.description: NCI tumour cell line growth inhibition, 48 h

Recorded TGI, per entry:
>>> measurement("CC(NS(C)(=O)=O)c1ccccc1 (stereo unspecified)")
"> 100 µM"
>>> measurement("CC1C(c2ccc3c(c2)OCO3)c2cc3c(cc2OC1N1CCCC1)OCO3 (stereo unspecified)")
"52.3 µM"
>>> measurement("CC(=O)OCC1OC(n2c(N)c(C#N)c(-c3ccccc3)c(C#N)c2=S)C(OC(C)=O)C(OC(C)=O)C1OC(C)=O (stereo unspecified)")
"> 100 µM"
>>> measurement("CC(=O)O[C@@H]1CO[C@H]2O[C@H]3[C@@H](C(C=O)=C[C@H](O)[C@@H]4C5=C(C(C)C)CC[C@]5(C)CC[C@@]34C)[C@@]2(O)C1=O")
"0.415 µM"
>>> measurement("Cc1cc(N(CCC#N)CCC#N)ccc1/C(N=Nc1cccc([N+](=O)[O-])c1)=N/NC(=O)c1cc(Cl)ccc1O")
"> 100 µM"

# input What value of TGI has been recorded for this entry: CCCNC(=S)N/N=C/c1cccc(C)n1
# output > 100 µM

# input What value of TGI has been recorded for this entry: NC1C/C(=N\O)c2c(I)sc(I)c21 (stereo unspecified)
# output > 54 µM

# input What value of TGI has been recorded for this entry: COc1cc(/C=C/C(C)=O)ccc1OP(=O)(O)O
# output > 100 µM

# input What value of TGI has been recorded for this entry: N#CCC(=O)Nn1c(CC#N)nnc1Cc1ccccc1
# output > 100 µM

# input What value of TGI has been recorded for this entry: CC(=O)OC1CC2CCC1(C)C2(C)C (stereo unspecified)
# output > 100 µM

# input What value of TGI has been recorded for this entry: OCCN(CCO)c1ccc2c(C(F)(F)F)cc(C(F)(F)F)nc2n1
# output > 100 µM

# input What value of TGI has been recorded for this entry: CC(C)OP(=O)(CN(C)/C(F)=N\C(F)(F)F)OC(C)C
# output > 100 µM

# input What value of TGI has been recorded for this entry: O=C(CSc1nc(=O)[nH]c2nc[nH]c12)Nc1ccccc1
# output > 100 µM

# input What value of TGI has been recorded for this entry: Cc1ccc2c(c1)NC(=O)CCSSCCC(=O)N2
# output > 100 µM

# input What value of TGI has been recorded for this entry: CC(C)(C)c1ccc(CN2CCN(C(c3ccccc3)c3ccc(Cl)cc3)CC2)cc1 (stereo unspecified)
# output > 100 µM

# input What value of TGI has been recorded for this entry: CN1C(c2ccccc2)=CC(=O)C(O)=C(c2ccccc2)S1(=O)=O
# output > 100 µM

# input What value of TGI has been recorded for this entry: CC(C)CCC1(O)O[C@H]2C[C@H]3[C@@H]4CCC5CC(=O)C=C[C@]5(C)[C@H]4CC[C@]3(C)[C@H]2[C@@H]1C (stereo partly specified)
# output 27 µM

# input What value of TGI has been recorded for this entry: CCP(=O)(CC)C(Cl)(Cl)C(O)C(C)(C)C (stereo unspecified)
# output > 100 µM

# input What value of TGI has been recorded for this entry: O=C(CN1CCN(C(=O)OCc2ccccc2)CCN(CC(=O)N2CCCCC2)CCN(C(=O)OCc2ccccc2)CC1)N1CCCCC1
# output 29.7 µM

# input What value of TGI has been recorded for this entry: O=C(Cn1nc(Br)c(Br)c1Br)c1ccccc1
# output > 100 µM

# input What value of TGI has been recorded for this entry: CC1CCCC2=C1C(c1ccc(Cl)cc1)n1c(s/c(=C\c3ccc(Cl)cc3)c1=O)=N2 (stereo unspecified)
# output > 100 µM

* * *

# Test system: HOP-18 NSCLC
# run.description: NCI tumour cell line growth inhibition, 48 h
Quick reference for TGI among some compounds

Recorded TGI, per entry:
>>> measurement("C(=C\\c1csnn1)/c1cccnc1")
"> 100 µM"
>>> measurement("O=c1[nH]c(Br)nc2c(Br)c[nH]c12")
"> 100 µM"
>>> measurement("Nc1ccc(Nc2nc(F)nc(-c3c4ccccc4c4n3CCS4)n2)cc1")
"33.9 µM"

# input What value of TGI has been recorded for this entry: O=Cc1ccc(-c2ccc(-c3ccc(C=O)s3)o2)s1
# output > 100 µM

# input What value of TGI has been recorded for this entry: Cc1c(C(=O)/C=C/c2ccc(Cl)cc2)[n+](=O)c2ccccc2n1[O-]
# output 57.7 µM

# input What value of TGI has been recorded for this entry: CCCNCc1nc2ccc(Br)cc2c(=O)n1CCC
# output 32.1 µM

* * *

# Tested on: NCI/ADR-RES ovarian
# run.description: NCI tumour cell line growth inhibition, 48 h
readout.label: TGI (µM)
Only the number, expressed in µM, is required.

Recorded TGI, per entry:
>>> measurement("COc1cc(CSc2nc3ccc(C)cc3c(=O)n2Cc2ccccc2)cc(OC)c1OC")
14.6
>>> measurement("CO[C@@H]1[C@@H](OC2OC(C)C(OC3CC(C)(O)C(OC(=O)CC(C)C)C(C)O3)C(N(C)C)C2O)[C@@H](CC=O)C[C@@H](C)C(=O)/C=C/C2O[C@H]2C[C@@H](C)OC(=O)C[C@H]1OC(C)=O (stereo partly drawn)")
98.9
>>> measurement("C#C[C@]1(O)CC[C@H]2[C@@H]3CC=C4c5sc(N=C(N)N)nc5CC[C@]4(C)[C@H]3CC[C@@]21C")
3.59

From here, focus on the item given below.
# input What value of TGI has been recorded for this entry: O=C(CN1CCN(C(=O)OCc2ccccc2)CCN(CC(=O)N2CCCCC2)CCN(C(=O)OCc2ccccc2)CC1)N1CCCCC1
# output 32.5

All values here come from PubChem BioAssay (NCI).
